src = patent US20190284262A1

targetDesc: T1, HLA-A*02:01 on T2 cells alone (no peptide added) (human)
T1 construct: TAP-deficient T2 cells without pulsed peptide; negative control target, and the HLA molecule whose stabilisation by peptides is read in the T2 stabilization assay; also called HLA-A*02 molecule; HLA-A2 molecule
testMethodNotes: flow cytometry, phage on T2 cells

- binder: "EXT017-11 scFv phage clone (scFv, also called phage clone #11) scFv: NFMLTQPHSVSESPGKTVTISCTRSSGSIASNYVQWYQQRPGSAPTTVIYEDNQRPSGVPDRFSGSIDSSSNSASLTISGLKTEDEADYYCQSYDTNNYGVIFGGGTKLTVLGSRGGGGSGGGGSGGGGSLEMAQMQLVQSGAEVKKPGASVKVSCKTSGYTFNNYYMHWVRQAPGQGLEWMGIINPSGGSTNYAQKFQGRVTMTRDTSTSTVYMELSSLRSEDTAVYYCARSFDKQDIDYWGQGTLVTVSSTSGQAGQHHHHHHGAYPYDVPDYAS"
  binding result: "no binding"
- binder: "EXT017-17 scFv phage clone (scFv, fusion to the phage coat protein not described; also called EXT017-17 phage; phage clone #17) scFv: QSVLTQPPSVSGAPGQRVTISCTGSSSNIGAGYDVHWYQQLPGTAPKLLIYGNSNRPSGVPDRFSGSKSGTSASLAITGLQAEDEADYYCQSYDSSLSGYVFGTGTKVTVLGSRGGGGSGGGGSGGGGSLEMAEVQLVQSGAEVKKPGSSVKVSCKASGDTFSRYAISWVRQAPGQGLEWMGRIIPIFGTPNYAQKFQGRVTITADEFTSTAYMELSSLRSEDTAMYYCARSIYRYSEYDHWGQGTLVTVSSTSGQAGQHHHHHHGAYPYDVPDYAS"
  binding result: "no binding"
